target: Prostaglandin G/H synthase 1 (Homo sapiens); assay: Inhibition of human whole blood COX-1 assessed as inhibition of TXB2 production at 100 uM by EIA
Sequence (P23219 whole entry): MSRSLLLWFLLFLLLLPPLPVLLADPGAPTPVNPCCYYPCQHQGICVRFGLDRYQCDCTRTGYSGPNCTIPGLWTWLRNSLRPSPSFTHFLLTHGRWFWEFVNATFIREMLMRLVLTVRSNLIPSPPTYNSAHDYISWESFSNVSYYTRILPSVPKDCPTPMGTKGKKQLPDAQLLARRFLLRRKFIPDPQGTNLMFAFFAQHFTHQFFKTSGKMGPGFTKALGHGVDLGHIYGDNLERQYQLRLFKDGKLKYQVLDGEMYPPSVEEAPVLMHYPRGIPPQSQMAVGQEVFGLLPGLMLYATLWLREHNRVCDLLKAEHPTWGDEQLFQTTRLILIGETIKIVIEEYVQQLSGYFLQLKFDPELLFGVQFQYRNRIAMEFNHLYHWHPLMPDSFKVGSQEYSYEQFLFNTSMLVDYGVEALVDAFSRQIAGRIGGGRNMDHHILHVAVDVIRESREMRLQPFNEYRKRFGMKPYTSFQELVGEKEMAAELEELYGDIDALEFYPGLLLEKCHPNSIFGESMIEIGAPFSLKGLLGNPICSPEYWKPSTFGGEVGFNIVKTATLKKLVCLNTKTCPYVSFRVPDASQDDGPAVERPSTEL
Classify as follows. Reported inhibition greater than or equal to 60%: rule met. Reported inhibition below: rule not met.

Query block: Can CC(C(=O)O)c1ccc(NC2CCCC2)cc1F (stereo unspecified) be said to have inhibition at or above 60%?
Result block: rule met

Query block: Check if inhibition >= 60% (inclusive). Item: CC(C(=O)O)c1ccc(O[C@H]2CCC[C@@H]2O)cc1F (stereo partly specified)
Result block: rule met

Query block: Does the compound CC(C(=O)O)c1ccc(S[C@H]2CCC[C@@H]2O)cc1F (stereo partly specified) have recorded inhibition that is 60% or more?
Result block: rule not met

Query block: Tell me whether inhibition is at least 60% here: CC(C(=O)O)c1ccc(N[C@H]2CCCC[C@@H]2O)cc1F (stereo partly specified)
Result block: rule not met

Query block: Could you tell me if the measured inhibition of CC(C(=O)O)c1c(F)cc(CC2CCCC2=O)cc1F (stereo unspecified) reaches 60% or more?
Result block: rule met

Query block: Exam item: decide whether the reported inhibition for CC(C(=O)O)c1ccc(Cc2ccoc2)cc1F (stereo unspecified) is at least 60%.
Result block: rule not met

###

Target: Prostaglandin G/H synthase 2 (Homo sapiens) (UniProt P35354)
Sequence (whole entry): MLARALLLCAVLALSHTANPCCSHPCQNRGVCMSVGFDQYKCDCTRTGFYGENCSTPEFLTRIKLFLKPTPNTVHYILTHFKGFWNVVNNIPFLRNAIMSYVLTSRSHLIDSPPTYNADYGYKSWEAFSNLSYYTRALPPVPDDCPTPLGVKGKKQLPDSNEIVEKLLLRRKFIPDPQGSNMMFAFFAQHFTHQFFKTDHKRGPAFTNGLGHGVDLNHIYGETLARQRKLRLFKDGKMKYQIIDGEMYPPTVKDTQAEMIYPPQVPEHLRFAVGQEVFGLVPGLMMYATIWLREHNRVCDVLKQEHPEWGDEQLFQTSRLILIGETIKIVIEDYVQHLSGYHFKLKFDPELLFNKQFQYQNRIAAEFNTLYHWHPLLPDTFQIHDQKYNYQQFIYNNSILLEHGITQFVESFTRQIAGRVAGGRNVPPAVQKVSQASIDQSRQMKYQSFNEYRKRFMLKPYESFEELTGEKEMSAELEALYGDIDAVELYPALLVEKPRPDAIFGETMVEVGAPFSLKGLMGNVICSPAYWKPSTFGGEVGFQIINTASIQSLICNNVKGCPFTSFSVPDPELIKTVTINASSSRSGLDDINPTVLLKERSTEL
Assay: Inhibition of LPS-stimulated human whole blood COX-2 assessed as inhibition of PGE2 production at 10 uM by EIA
Could you please report measured inhibition for the items listed next?
Supply the numeric figure in %, leaving out any unit text.

Query block: Look up inhibition for this compound: CC(C(=O)O)c1ccc(SC2CCCC2=O)cc1F (configuration not stated)
Result block: 55.5

Query block: I have this compound here, CC(C(=O)O)c1ccc(N[C@H]2CCC[C@@H]2O)cc1F (some centres not stated) , and I need its recorded inhibition.
Result block: 45.3

Query block: Reported inhibition for CC(C(=O)O)c1ccc(Cc2ccsc2)cc1F (configuration not stated) : what is it?
Result block: 60.2

Query block: For the compound CC(C(=O)O)c1c(F)cc(CC2CCCC2=O)cc1Br (configuration not stated) , what inhibition is on record?
Result block: 0

Query block: Sample CC(C(=O)O)c1ccc(CC2CCCC2=O)cc1F (configuration not stated) — what was its inhibition?
Result block: 44.2

Query block: State the recorded inhibition for this entry: CC(C(=O)O)c1c(F)cc(CC2CCCC2=O)cc1-c1ccc(O)cc1 (configuration not stated)
Result block: 15.4

Query block: For CC(C(=O)O)c1ccc(N[C@H]2CCCC[C@@H]2O)cc1F (some centres not stated) , what is its reported inhibition?
Result block: 28.3

Query block: Consider the compound shown here: CC(C(=O)O)c1ccc(OC2CCCC2=O)cc1F (configuration not stated) What is its recorded inhibition?
Result block: 27.6

Query block: Item under review: CC(C(=O)O)c1ccc(S[C@H]2CCC[C@@H]2O)cc1F (some centres not stated) . Reported inhibition?
Result block: 0

Query block: Would you kindly share the measured inhibition for CC(C(=O)O)c1c(F)cc(CC2CCCC2=O)cc1F (configuration not stated) ?
Result block: 0

Query block: Return reported inhibition; argument: CC(C(=O)O)c1ccc(NC2CCCC2)cc1F (configuration not stated)
Result block: 40.7

Query block: Look up inhibition for this compound: CC(C(=O)O)c1ccc(OC2CCCC2)cc1F (configuration not stated)
Result block: 39.7

###

Kindly supply the reported pIC50 values for the records listed here.
Molecular target: Prostaglandin G/H synthase 2 (Homo sapiens)
Sequence (P35354 whole entry): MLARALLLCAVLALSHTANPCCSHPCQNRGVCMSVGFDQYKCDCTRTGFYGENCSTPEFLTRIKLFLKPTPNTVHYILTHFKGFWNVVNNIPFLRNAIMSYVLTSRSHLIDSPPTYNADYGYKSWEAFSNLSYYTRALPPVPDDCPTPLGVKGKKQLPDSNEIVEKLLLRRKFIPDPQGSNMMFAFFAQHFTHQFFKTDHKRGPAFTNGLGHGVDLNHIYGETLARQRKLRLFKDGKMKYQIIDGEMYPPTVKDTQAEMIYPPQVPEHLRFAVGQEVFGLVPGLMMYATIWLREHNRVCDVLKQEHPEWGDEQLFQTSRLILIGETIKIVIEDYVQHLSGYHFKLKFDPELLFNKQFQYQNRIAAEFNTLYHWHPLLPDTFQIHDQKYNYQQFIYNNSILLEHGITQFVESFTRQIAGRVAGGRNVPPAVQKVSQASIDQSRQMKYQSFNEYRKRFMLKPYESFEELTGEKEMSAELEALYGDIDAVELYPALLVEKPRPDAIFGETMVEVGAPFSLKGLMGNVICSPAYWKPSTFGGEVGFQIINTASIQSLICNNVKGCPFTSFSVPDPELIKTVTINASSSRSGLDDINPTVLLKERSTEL
Test: Inhibition of LPS-stimulated human whole blood COX-2 assessed as inhibition of PGE2 production by EIA
On this scale, pIC50 is minus log10 of a concentration expressed in M (mol/L).

Query block: Bench note: what pIC50 did CC(C(=O)O)c1ccc(Cc2ccsc2)cc1F (stereo not drawn) show?
Result block: 5.08

Query block: // pIC50 lookup, key: CC(C(=O)O)c1ccc(OC2CCCC2)cc1F (stereo not drawn)
Result block: 4.58

Query block: # get_value(readout='pIC50', item= CC(C(=O)O)c1ccc(NC2CCCC2)cc1F (stereo not drawn) )
Result block: 4.67

Query block: Which pIC50 value belongs to CC(C(=O)O)c1ccc(Cc2ccco2)cc1F (stereo not drawn) ?
Result block: 5.39

Query block: Value lookup for pIC50; key = CC(C(=O)O)c1ccc(N[C@H]2CCC[C@@H]2O)cc1F (stereo partly drawn)
Result block: 4.85

Query block: Please look up its pIC50: CC(C(=O)O)c1ccc(Cc2cccs2)cc1F (stereo not drawn)
Result block: 4.89

Query block: // pIC50 lookup, key: CC(C(=O)O)c1ccc(Cc2ccoc2)cc1F (stereo not drawn)
Result block: 5.40

Query block: Which pIC50 reading was recorded for the molecule CC(C(=O)O)c1ccc(OC2CCCC2=O)cc1F (stereo not drawn) ?
Result block: 4.62

###

organism: Homo sapiens; experiment: Selectivity index, ratio of IC50 for human COX1 to IC50 for human COX2
resultType: Ratio IC50
Respond using a number only.

Query block: Need Ratio IC50, item CC(C(=O)O)c1ccc(N[C@H]2CCC[C@@H]2O)cc1F (stereo partly drawn)
Result block: 0.7

Query block: Which Ratio IC50 is listed for CC(C(=O)O)c1ccc(Cc2cccs2)cc1F (stereo not drawn) ?
Result block: 1.5

Query block: Bench note: what Ratio IC50 did Cc1ccc(-c2cc(C(F)(F)F)nn2-c2ccc(S(N)(=O)=O)cc2)cc1 show?
Result block: 22.7
